- tgt: NLRP3 (Homo sapiens)
- Construct: Seed THP-1 cells (5.56*10^5 cells/mL) containing 1.0 ug/mL LPS; endogenous in cells
- Sequence (Q96P20 whole entry): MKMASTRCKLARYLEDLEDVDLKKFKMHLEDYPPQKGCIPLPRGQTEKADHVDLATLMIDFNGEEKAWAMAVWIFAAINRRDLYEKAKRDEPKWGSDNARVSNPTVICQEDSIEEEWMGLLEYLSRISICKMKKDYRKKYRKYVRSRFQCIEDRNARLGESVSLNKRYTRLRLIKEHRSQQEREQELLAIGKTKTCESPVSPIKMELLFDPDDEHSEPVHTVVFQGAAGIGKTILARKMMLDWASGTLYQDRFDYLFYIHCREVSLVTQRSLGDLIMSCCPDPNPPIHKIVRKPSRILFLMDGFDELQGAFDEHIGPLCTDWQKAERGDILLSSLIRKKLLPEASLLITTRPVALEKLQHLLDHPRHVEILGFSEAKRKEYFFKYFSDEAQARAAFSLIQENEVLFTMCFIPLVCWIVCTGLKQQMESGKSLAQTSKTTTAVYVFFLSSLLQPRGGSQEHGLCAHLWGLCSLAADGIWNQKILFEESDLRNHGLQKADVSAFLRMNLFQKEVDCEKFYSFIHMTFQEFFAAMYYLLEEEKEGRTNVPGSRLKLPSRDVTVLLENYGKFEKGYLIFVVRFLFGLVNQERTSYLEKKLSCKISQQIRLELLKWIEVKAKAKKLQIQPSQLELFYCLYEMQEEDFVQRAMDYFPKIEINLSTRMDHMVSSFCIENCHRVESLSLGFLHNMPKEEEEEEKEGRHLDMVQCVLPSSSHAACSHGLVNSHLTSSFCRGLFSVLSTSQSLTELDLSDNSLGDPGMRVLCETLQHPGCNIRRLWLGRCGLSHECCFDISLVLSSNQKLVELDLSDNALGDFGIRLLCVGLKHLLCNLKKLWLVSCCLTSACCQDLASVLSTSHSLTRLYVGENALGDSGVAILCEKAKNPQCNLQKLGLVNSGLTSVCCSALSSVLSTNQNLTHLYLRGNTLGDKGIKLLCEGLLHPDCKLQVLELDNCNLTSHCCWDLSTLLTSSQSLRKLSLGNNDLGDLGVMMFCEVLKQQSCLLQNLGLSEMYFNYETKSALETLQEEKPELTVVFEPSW
- protocol.text: THP-1 cell assay (LPS priming, nigericin), IL1β release by HTRF; called pyroptosis assay, THP IC50
- assay.context: NLRP3 inhibitory activity; THP-1 cells, 1.0 ug/mL LPS, compound 3 hrs, nigericin 5 uM 1 hr, IL1β in supernatant
pIC50: −log10 of the molar value.
value.kind: pIC50

Cc1cc2c(c(NC(=O)NS(=O)(=O)c3ccn(C4CC4)n3)c1-c1ccn3nccc3c1)CCC2
≥ 7.52

The recorded pIC50 for entry CN1CCC(n2ccc3c(-c4ccc5c(c4NC(=O)NS(=O)(=O)c4cc(C(C)(C)O)cs4)CCC5)ccnc32)C1 (stereo not drawn) equals 6.00 to 6.52

Entry COC(c1cc(S(=O)(=O)NC(=O)Nc2c3c(cc(C)c2-c2ccn4nccc4c2)CCC3)nn1C)C1CC1 (stereo not drawn) , pIC50 reported as 6.52 to 7.52

Reported pIC50 ( "O=C(Nc1c2c(cc(F)c1-c1ccn3nccc3c1)CCO2)NS(=O)(=O)c1ccn(C2CC2)n1" ) = 6.00 to 6.52

// field: pIC50; key: "CC(C)(O)c1csc(S(=O)(=O)NC(=O)Nc2c(-c3cncc4[nH]ccc34)ccc3c2CCC3)c1" ; value = 6.00 to 6.52

Per the records, this molecule ( "Cc1cc2c(c(NC(=O)NS(=O)(=O)c3ccn(C[C@@H]4CCO4)n3)c1-c1ccn3ncnc3c1)CCC2" ) has pIC50 equal to 6.52 to 7.52

The recorded pIC50 for "Cn1ncc2c(-c3ccc4c(c3NC(=O)NS(=O)(=O)c3cc(C(C)(C)O)cs3)CCC4)ccnc21" is 6.52 to 7.52

The molecule listed as "Cc1cc2c(c(NC(=O)NS(=O)(=O)c3cnn(CC4CC4)c3)c1-c1ccc3nccn3c1)CCC2" has a reported pIC50 of ≥ 7.52

# molecule "Cc1cc2c(c(NC(=O)NS(=O)(=O)c3cnn(CC4CC4)c3)c1-c1ccnc3[nH]ccc13)CCC2" ; its pIC50 = ≥ 7.52

* * *

- tgt: NLRP3 (Homo sapiens)
- Construct: Seed THP-1 cells (5.56*10^5 cells/mL) containing 1.0 ug/mL LPS; endogenous in cells
- protocol.text: THP-1 cell assay (LPS priming, nigericin), IL1β release by HTRF; called pyroptosis assay, THP IC50
- assay.context: NLRP3 inhibitory activity; THP-1 cells, 1.0 ug/mL LPS, compound 3 hrs, nigericin 5 uM 1 hr, IL1β in supernatant
# Lookup of reported IC50 keyed by entry

// field: IC50; key: Cc1cc2c(c(NC(=O)NS(=O)(=O)C3CC(OC4CC4)C3)c1-c1ccn3nccc3c1)CCC2 (stereo not shown) ; value = 30 to 300 nM

Quick note, IC50 for "Cc1cc2c(c(NC(=O)NS(=O)(=O)c3ccn(C4CC4)n3)c1-c1ccn3cnnc3c1)CCC2" landed at ≤ 30 nM

* * *

- tgt: NLRP3 (Homo sapiens)
- Construct: Seed THP-1 cells (5.56*10^5 cells/mL) containing 1.0 ug/mL LPS; endogenous in cells
- protocol.text: THP-1 cell assay (LPS priming, nigericin), IL1β release by HTRF; called pyroptosis assay, THP IC50
- assay.context: NLRP3 inhibitory activity; THP-1 cells, 1.0 ug/mL LPS, compound 3 hrs, nigericin 5 uM 1 hr, IL1β in supernatant
value.kind: IC50

Some entries whose results are on file:
Cc1cc2c(c(NC(=O)NS(=O)(=O)c3ccn(CC4CCC4)n3)c1-c1ccn3nccc3c1)CCC2
≤ 30 nM
Cc1cc2c(c(NC(=O)NS(=O)(=O)c3ccn(C4CC4)n3)c1-c1ccc3ccnn3c1)CCC2
30 to 300 nM

Measured IC50 of "Cc1cc2cc(-c3c(C)cc4c(c3NC(=O)NS(=O)(=O)c3ccn(C5CC5)n3)CCC4)ccn2n1" : ≤ 30 nM

Note to self: IC50 recorded for "O=C(Nc1c(-c2ccn3nccc3c2)ccc2c1CCC2)NS(=O)(=O)c1cnn(CC2CC2)c1" was ≤ 30 nM

compound "CC(C)(O)c1csc(S(=O)(=O)NC(=O)Nc2c3c(cc(Cl)c2-c2ccn4cncc4c2)CCC3)c1" , IC50 observed: ≤ 30 nM

Entry "O=C(Nc1c(-c2ccnc3[nH]ccc23)ccc2c1CCC2)NS(=O)(=O)c1cnn(CC2CC2)c1" , IC50 reported as ≤ 30 nM

The value of IC50 measured for the compound "Cc1c(-c2ccc3c(c2NC(=O)NS(=O)(=O)c2cc(C(C)(C)O)cs2)CCC3)ccn2ccnc12" turned out to be 30 to 300 nM

* * *

- tgt: NLRP3 (Homo sapiens)
- Construct: Seed THP-1 cells (5.56*10^5 cells/mL) containing 1.0 ug/mL LPS; endogenous in cells
- protocol.text: THP-1 cell assay (LPS priming, nigericin), IL1β release by HTRF; called pyroptosis assay, THP IC50
- assay.context: NLRP3 inhibitory activity; THP-1 cells, 1.0 ug/mL LPS, compound 3 hrs, nigericin 5 uM 1 hr, IL1β in supernatant
Recorded measurements of IC50, one per entry

Please review the following examples before continuing.
Cc1cc2c(c(NC(=O)NS(=O)(=O)c3ccc(=O)n(CC4CC4)c3)c1-c1ccn3nccc3c1)CCC2 [Example 39]
30 to 300 nM
Cn1cnc2ccc(-c3ccc4c(c3NC(=O)NS(=O)(=O)c3cc(C(C)(C)O)cs3)CCC4)cc21 [Example 43]
300 to 1000 nM
CC(C)(O)c1csc(S(=O)(=O)NC(=O)Nc2c(-c3ccc4nncn4c3)ccc3c2CCC3)c1 [Example 61]
300 to 1000 nM

Reported IC50 ( O=C(Nc1c2c(cc(CO)c1-c1ccn3nccc3c1)CCC2)NS(=O)(=O)c1ccn(C2CC2)n1 [Example 98] ) = 30 to 300 nM

* * *

- tgt: NLRP3 (Homo sapiens)
- Construct: Seed THP-1 cells (5.56*10^5 cells/mL) containing 1.0 ug/mL LPS; endogenous in cells
- protocol.text: THP-1 cell assay (LPS priming, nigericin), IL1β release by HTRF; called pyroptosis assay, THP IC50
- assay.context: NLRP3 inhibitory activity; THP-1 cells, 1.0 ug/mL LPS, compound 3 hrs, nigericin 5 uM 1 hr, IL1β in supernatant
value.kind: IC50

Known results for molecules:
Cc1cc2c(c(NC(=O)NS(=O)(=O)c3ccn([C@@H]4CC[C@@H]4O)n3)c1-c1ccn3nccc3c1)CCC2 (relative stereo)
> 2000 nM
CC(C)(O)c1csc(S(=O)(=O)NC(=O)Nc2c3c(cc(C#N)c2-c2ccn4cncc4c2)CCC3)c1
≤ 30 nM
O=C(Nc1c2c(cc(F)c1-c1ccn3nccc3c1)CCC2)NS(=O)(=O)c1ccn(C2CC2)n1
≤ 30 nM

Note: attention shifts to another entry.
Data point: "O=C(Nc1c2c(cc(Cl)c1-c1ccn3cnnc3c1)CCC2)NS(=O)(=O)c1ccn(C2CC2)n1" ; IC50 = ≤ 30 nM

* * *

Parameter: IC50. Scope: all listed entries.
- tgt: NLRP3 (Homo sapiens)
- Construct: Seed THP-1 cells (5.56*10^5 cells/mL) containing 1.0 ug/mL LPS; endogenous in cells
- protocol.text: THP-1 cell assay (LPS priming, nigericin), IL1β release by HTRF; called pyroptosis assay, THP IC50
- assay.context: NLRP3 inhibitory activity; THP-1 cells, 1.0 ug/mL LPS, compound 3 hrs, nigericin 5 uM 1 hr, IL1β in supernatant
- Protocol: The following method was used for compound screening. • 1. Seed THP-1 cells (5.56*10^5 cells/mL) containing 1.0 ug/mL LPS (SIGMA, L6529) in 45 uL RPMI 1640 medium (without FBS) into 384-well plate (Thermo Scientific, 164688). • 2. […] Seal the plates, spin down for 10 secs, incubation for overnight at RT and read on an HTRF® compatible reader (BMG LABTECH, PHERAstar FS). • 12. The concentrations of IL1β for treated wells are calculated by the standard curve. • 13. […]

Cc1cc2c(c(NC(=O)NS(=O)(=O)c3cc(C(O)C4CC4)n(C)n3)c1-c1ccn3nccc3c1)CCC2 (stereo not shown)
≤ 30 nM

Looking up "CC(C)(O)c1csc(S(=O)(=O)NC(=O)Nc2c(-c3ccc4nccn4c3)ccc3c2OCO3)c1" , I see its IC50 listed as 30 to 300 nM

Entry "Cc1cc2c(c(NC(=O)NS(=O)(=O)c3cncc(NC4CC4)c3)c1-c1ccn3nccc3c1)CCC2" — recorded IC50 = ≤ 30 nM

Record summary for "Cc1cc2c(c(NC(=O)NS(=O)(=O)c3cncc(N(C)C4CC4)c3)c1-c1ccn3nccc3c1)CCC2" : reported IC50 = 30 to 300 nM

Record summary for "Cc1cc2c(c(NC(=O)NS(=O)(=O)c3cncc(OC4CCC4)c3)c1-c1ccn3nccc3c1)CCC2" : reported IC50 = ≤ 30 nM

Measured IC50, "CC(C)(O)c1csc(S(=O)(=O)NC(=O)Nc2c(-c3ccn4nncc4c3)ccc3c2CCC3)c1" : 30 to 300 nM

The measured IC50 associated with "Cc1cc2c(c(NC(=O)NS(=O)(=O)c3ccn(C4CC4)n3)c1-c1ccn3nncc3c1)CCC2" reads ≤ 30 nM
